# Tested on: human endothelial cells and fibroblasts
# Test details: Experiment of luminal formation: concurrent culture, CD31 staining, area of the lumen
# Assay type: cell-based
# Particulars: Example 1; 0.1-20 mM, 10 days
Property name: effect on the luminal formation

O=C[C@@H](O)[C@@H](O)[C@@H](O)CO [LRI, L-ribose]: effect was confirmed
O=C[C@H](O)[C@H](O)[C@H](O)CO [RIB, D-ribose]: effect was confirmed
O=C(CO)[C@@H](O)[C@H](O)[C@@H](O)CO [SOR, L-sorbose]: no influence
O=C[C@@H](O)[C@@H](O)[C@H](O)[C@H](O)CO [MAN, D-mannose]: no influence

====

# System: human endothelial cells and fibroblasts
# Test details: Experiment of luminal formation: concurrent culture, CD31 staining, area of the lumen
# Format: cell-based
# Particulars: co-existence of 20 mM D-glucose
Property name: antagonism of the luminal formation inhibitory effect by D-glucose

O=CC[C@@H](O)[C@@H](O)CO: no apparent effect
O=C[C@H](O)[C@H](O)[C@@H](O)[C@H](O)CO: no apparent effect
O=C[C@H](O)C[C@H](O)[C@H](O)CO: no apparent effect
O=C[C@@H](O)[C@@H](O)[C@@H](O)[C@@H](O)CO: antagonized
O=C[C@@H](O)[C@H](O)[C@H](O)[C@H](O)CO: no apparent effect
O=C[C@H](O)[C@H](O)[C@H](O)CO: no apparent effect
O=C[C@H](O)[C@H](O)[C@H](O)[C@H](O)CO: no apparent effect
O=CC[C@@H](O)[C@H](O)[C@H](O)CO: antagonized
O=C[C@@H](O)[C@@H](O)[C@@H](O)CO: no apparent effect
O=CC[C@H](O)[C@H](O)CO: no apparent effect

====

# Tested on: Human umbilical cord vascular endothelial cells (HUVEC)
# Test details: Experiment of growth: HUVEC cell number by WST-8 after 48 hrs
# Format: cell-based
# Particulars: Example 1; 0.1-20 mM, 48 hrs
Property name: effect on the growth of HUVEC

O=C[C@@H](O)[C@@H](O)[C@@H](O)[C@@H](O)CO: no influence
O=C[C@@H](O)[C@@H](O)[C@@H](O)[C@H](O)CO: no influence
O=C[C@H](O)[C@H](O)[C@@H](O)[C@H](O)CO: no influence
O=C[C@H](O)[C@H](O)[C@H](O)[C@H](O)CO: effect was confirmed
O=C[C@H](O)[C@H](O)[C@H](O)CO: no influence
O=CC[C@@H](O)[C@H](O)[C@H](O)CO: effect was confirmed
O=CC[C@H](O)[C@H](O)CO: effect was confirmed
O=CC[C@@H](O)[C@@H](O)CO: effect was confirmed
O=C[C@H](O)C[C@H](O)[C@H](O)CO: effect was confirmed
O=C[C@@H](O)[C@H](O)[C@H](O)[C@H](O)CO: no influence
O=C[C@@H](O)[C@@H](O)[C@@H](O)CO: no influence
